The measurements presented in this section are drawn from patent US20090252788A1.

# EXPERIMENTAL PROTOCOL: Particle size distribution and specific surface area (LS 200, Small Volume Module, Fraunhofer optical model)
# Format: physicochemical
# SETTINGS: Particle Diameter (Lower) 18.86 μm
Kindly state Diff. Volume % for each of the entries shown.
Numbers only, in %.

1. O=C([O-])CCNC(=O)c1ccc(/N=N/c2ccc(O)c(C(=O)[O-])c2)cc1.[Na+].[Na+] [Sample 1] ... 4.34
2. O=C([O-])CCNC(=O)c1ccc(/N=N/c2ccc(O)c(C(=O)[O-])c2)cc1.[Na+].[Na+] [Sample 2] ... 3.78
3. O=C(O)CCNC(=O)c1ccc(/N=N/c2ccc(O)c(C(=O)O)c2)cc1 [Feed Powder Sample B (#41.$02)] ... 23.1
4. O=C(O)CCNC(=O)c1ccc(/N=N/c2ccc(O)c(C(=O)O)c2)cc1 [Feed Powder Sample A (#35.$01)] ... 10.2
5. O=C(O)CCNC(=O)c1ccc(/N=N/c2ccc(O)c(C(=O)O)c2)cc1 [Feed Powder Sample C (#53.$02)] ... 7.30
6. O=C([O-])CCNC(=O)c1ccc(/N=N/c2ccc(O)c(C(=O)[O-])c2)cc1.[Na+].[Na+] [Sample 4] ... 25.5

Next compound, Diff. Volume % to be filled in.
query: Reported Diff. Volume % for O=C([O-])CCNC(=O)c1ccc(/N=N/c2ccc(O)c(C(=O)[O-])c2)cc1.[Na+].[Na+] [Sample 3] : what is it?
result: 7.20
